- Test system: NCI-H460 lung
- procedure.summary: NCI-60 one-dose screen, 48 h (100 = growth as untreated, 0 = no growth, -100 = all killed)
- condition.description: 10 µM unless noted
About 83,000 compounds went through this panel and 20% of them were active in at least one assay; those are over-represented in the sample as a whole.
Strictly below 70% in growth: Yes. Otherwise: No.

{"columns": ["compound", "classification"],
 "data": [
  ["O=S(c1ccccc1)c1ccc2nnnn2n1 (stereo not given)", "No"],
  ["O=c1[nH]ccc2nc(N3CCC(O)CC3)nc(Nc3cccc(C(F)(F)F)c3)c12", "No"],
  ["COc1ccc(C2=NN(C(=O)COc3ccc(Cl)cc3)C(O)(c3cc(F)c(Cl)cc3Cl)C2)cc1 (stereo not given)", "No"],
  ["CC[C@@]1(O)C(=O)OCc2c1cc1n(c2=O)Cc2c-1nc1ccccc1c2/C=N/OC(C)(C)C", "Yes"],
  ["CNCCCOc1c(Br)cc(CCNC(=O)/C(Cc2ccc(OC)c(Br)c2)=N/O)cc1Br", "Yes"],
  ["Nc1nccc2c1ccn2-c1ccc(NC(=O)Nc2cccc(C(F)(F)F)c2)cc1", "No"],
  ["CSc1ccc(C(=O)C[n+]2cccc(C)c2)cc1", "No"],
  ["C=C1C(=O)O[C@H]2[C@H]1CC/C(COC(=O)c1ccccc1)=C\\CC[C@@]1(C)O[C@@H]21", "Yes"],
  ["C/C(=N/NC(=O)Cn1c2ccccc2c2ccncc21)c1cccs1", "No"],
  ["CN1CCN(Cn2nc(-c3cc(F)c(Cl)cc3Cl)n(/N=C/c3ccc(N(C)C)cc3)c2=S)CC1", "No"]
]}
